Test Details: Fraction unbound in human plasma at 10 uM by equilibrium dialysis method
Assay type: ADME, cell-free
Property Name: fraction unbound at 10 µM

Structure Smiles | fraction unbound at 10 µM
CC(=O)Nc1cc(Nc2cc(NC3CC3)n3ncc(C#N)c3n2)ccc1N(C)CCN | 0.39
CC(=O)Nc1cc(Nc2cc(NC3CC3)n3ncc(C#N)c3n2)ccc1N1CCC[C@H](N)C1 | 0.22

A. CC(=O)Nc1cccc(Nc2cc(NC3CC3)n3ncc(C#N)c3n2)c1
B. CC(=O)Nc1cc(Nc2cc(NC3CC3)n3ncc(C#N)c3n2)ccc1N1CC[C@H](N)C1
Which of the two gives a bigger number for fraction unbound at 10 µM: A or B ? Returns: label corresponding to the selected item.
B

a. CC(=O)Nc1cc(Nc2cc(NC3CC3)n3ncc(C#N)c3n2)ccc1N1CCC[C@@H](N)C1
b. CC(=O)Nc1cc(Nc2cc(NC3CC3)n3ncc(C#N)c3n2)ccc1N(C)CCO
c. CC(=O)Nc1cc(Nc2cc(NC3CC3)n3ncc(C#N)c3n2)ccc1N(C)C[C@@H](C)N
d. CC(=O)Nc1cc(Nc2cc(NC3CC3)n3ncc(C#N)c3n2)ccc1C
e. CC(=O)Nc1cc(Nc2cc(NC3CC3)n3ncc(C#N)c3n2)ccc1N(C)CCN1CC(F)(F)C1
Place the items in sequence of falling fraction unbound at 10 µM. Give the labels in the order requested.
c, a, d, b, e

A. CC(=O)Nc1cc(Nc2cc(NC3CC3)n3ncc(C#N)c3n2)ccc1N(C)CCN(C)C
B. CC(=O)Nc1cc(Nc2cc(NC3CC3)n3ncc(C#N)c3n2)ccc1N(C)CCN1CCOCC1
C. CC(=O)Nc1cc(Nc2cc(NC3CC3)n3ncc(C#N)c3n2)ccc1N1CCC[C@@H](N(C)C)C1
Place the items in sequence of falling fraction unbound at 10 µM. Give the labels in the order requested.
A, B, C

P. CCN(CC)CCN(C)c1ccc(Nc2cc(NC3CC3)n3ncc(C#N)c3n2)cc1NC(C)=O
Q. CC(=O)Nc1cc(Nc2cc(NC3CC3)n3ncc(C#N)c3n2)ccc1N(C)C[C@H](C)N
Which of the two gives a bigger number for fraction unbound at 10 µM: P or Q ? Returns: label corresponding to the selected item.
Q
(Q: 0.36, P: 0.23)

I. CC(=O)Nc1cc(Nc2cc(NC3CC3)n3ncc(C#N)c3n2)ccc1N1CC[C@H](N(C)C)C1
II. CC(=O)Nc1cc(Nc2cc(NC3CC3)n3ncc(C#N)c3n2)ccc1N1CCN(C)CC1
Which of the two gives a bigger number for fraction unbound at 10 µM: I or II ? Returns: label corresponding to the selected item.
I
(I: 0.29, II: 0.18)

1. CC(=O)Nc1cc(Nc2cc(NC3CC3)n3ncc(C#N)c3n2)ccc1N1CC[C@@H](N)C1
2. CC(=O)Nc1cc(Nc2cc(NC3CC3)n3ncc(C#N)c3n2)ccc1N(C)CCCN(C)C
# query: argmin of fraction unbound at 10 µM over 1 and 2 Returns: label corresponding to the selected item.
2

====

Target System: Casein kinase II (Homo sapiens, UniProt P19784+P67870+P68400)
Sequence (P67870 whole entry): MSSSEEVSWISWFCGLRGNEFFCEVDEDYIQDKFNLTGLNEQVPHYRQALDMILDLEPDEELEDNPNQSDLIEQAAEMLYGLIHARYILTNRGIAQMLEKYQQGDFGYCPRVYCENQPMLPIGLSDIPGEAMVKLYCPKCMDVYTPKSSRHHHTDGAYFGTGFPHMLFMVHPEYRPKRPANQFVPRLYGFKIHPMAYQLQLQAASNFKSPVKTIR
Sequence (P68400 whole entry): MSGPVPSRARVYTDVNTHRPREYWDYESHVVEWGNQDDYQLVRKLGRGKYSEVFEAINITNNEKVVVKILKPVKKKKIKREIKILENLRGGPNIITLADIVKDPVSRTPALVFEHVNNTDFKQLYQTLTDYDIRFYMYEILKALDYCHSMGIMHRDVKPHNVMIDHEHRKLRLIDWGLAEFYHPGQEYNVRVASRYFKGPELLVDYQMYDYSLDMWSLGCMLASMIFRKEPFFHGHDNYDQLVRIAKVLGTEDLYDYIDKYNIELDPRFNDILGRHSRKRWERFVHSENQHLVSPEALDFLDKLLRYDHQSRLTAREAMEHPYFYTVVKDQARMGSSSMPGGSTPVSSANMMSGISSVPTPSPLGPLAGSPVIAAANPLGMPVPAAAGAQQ
Sequence (P19784 whole entry): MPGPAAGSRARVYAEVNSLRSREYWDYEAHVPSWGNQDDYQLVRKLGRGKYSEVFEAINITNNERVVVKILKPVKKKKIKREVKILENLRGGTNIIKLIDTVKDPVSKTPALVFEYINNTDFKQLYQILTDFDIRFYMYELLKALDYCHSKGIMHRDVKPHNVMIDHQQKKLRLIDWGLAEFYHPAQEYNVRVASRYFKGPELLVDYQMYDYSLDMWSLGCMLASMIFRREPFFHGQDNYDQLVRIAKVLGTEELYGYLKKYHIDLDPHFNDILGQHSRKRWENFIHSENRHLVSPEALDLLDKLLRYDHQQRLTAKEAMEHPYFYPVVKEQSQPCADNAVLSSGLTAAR
Test Details: Inhibition of CK2 in human DLD1 HA-myr-AKT1 cells assessed as suppression of AKTser129 phosphorylation after 3 to 24 hrs by Western blot analysis
pIC50: −log10 of the molar value.
Property Name: pIC50

I. CC(=O)Nc1cc(Nc2cc(NC3CC3)n3ncc(C#N)c3n2)ccc1N(C)C[C@H](C)N
II. CC(=O)Nc1cc(Nc2cc(NC3CC3)n3ncc(C#N)c3n2)ccc1N1CC[C@H](N)C1
III. CC(=O)Nc1cc(Nc2cc(NC3CC3)n3ncc(C#N)c3n2)ccc1N(C)CCN(C)C
From the items above, give an ordering by pIC50 that starts at the lowest reported number. Give the labels in the order requested.
II, I, III
